Experiment: in vivo
Settings: Lewis, rat, po, 10 mg/kg

{"columns": ["compound", "concentration at 2 h (ng/mL)"],
 "data": [
  ["CC1(C)CC=C(c2nc(C3CC(C)(C)OC(C)(C)C3)ccc2NC(=O)c2nc(C#N)c[nH]2)CC1", 802]
]}

====

Experiment: in vivo
Settings: Lewis, rat, po, 20 mg/kg

{"columns": ["molecule", "quantity_unit", "concentration at 2 h"],
 "data": [
  ["CC1(C)CC=C(c2nc(C3CC(C)(C)OC(C)(C)C3)ccc2NC(=O)c2nc(C#N)c[nH]2)CC1 [Example 15]", "ng/mL", 1480]
]}

====

pIC50: −log10 of the molar value. Counter-ions that a name gives are not always drawn.
Test system c-fms (Homo sapiens (Human), UniProt P07333), pIC50 listed for each of the compounds.
measurement_name: pIC50

{"columns": ["compound", "subject_of_test", "reported_measurement"],
 "data": [
  ["CC1(C)CC=C(c2cc(C3CC(C)(C)S(=O)(=O)C(C)(C)C3)ccc2NC(=O)c2nc(C#N)c[nH]2)CC1 [Example 22]", "c-fms (Homo sapiens (Human), UniProt P07333)", 8.70],
  ["C[C@]12CC(c3ccc(NC(=O)c4nc(C#N)c[nH]4)c(C4=CCCCC4)n3)C[C@](C)(O1)[C@H](O)[C@@H]2O (some centres unmarked) [Example 19, trifluoroacetic acid salt]", "c-fms (Homo sapiens (Human), UniProt P07333)", 8.54],
  ["COC(=O)N1[C@@]2(C)C=C[C@]1(C)C[C@@](O)(c1ccc(NC(=O)c3nc(C#N)c[nH]3)c(C3=CCC(C)(C)CC3)c1)C2 [Example 10]", "c-fms (Homo sapiens (Human), UniProt P07333)", 8.46],
  ["CC1(C)CC=C(c2cc(C3C[C@](C)(CO)O[C@](C)(CO)C3)ccc2NC(=O)c2ncc(C#N)[nH]2)CC1 (some centres unmarked) [Example 14]", "c-fms (Homo sapiens (Human), UniProt P07333)", 8.96],
  ["CC1(C)CC=C(c2cc([C@@]3(O)C[C@]4(C)C=C[C@](C)(C3)O4)ccc2NC(=O)c2nc(C#N)c[nH]2)CC1 [Example 9]", "c-fms (Homo sapiens (Human), UniProt P07333)", 8.96],
  ["CC1(C)CC=C(c2cc(C3=C[C@@]4(CO)C=C[C@@](CO)(C3)O4)ccc2NC(=O)c2nc(C#N)c[nH]2)CC1 [Example 3]", "c-fms (Homo sapiens (Human), UniProt P07333)", 9.19],
  ["CC1(C)CC=C(c2cc([C@@H]3C[C@]4(CO)CC[C@](CO)(C3)O4)ccc2NC(=O)c2nc(C#N)c[nH]2)CC1 [Example 5]", "c-fms (Homo sapiens (Human), UniProt P07333)", 9.33],
  ["COC[C@@]12CC[C@@](COC)(C[C@@H](c3ccc(NC(=O)c4nc(C#N)c[nH]4)c(C4=CCC(C)(C)CC4)c3)C1)O2 [Example 6]", "c-fms (Homo sapiens (Human), UniProt P07333)", 8.57]
]}

====

Counter-ions that a name gives are not always drawn.
Test system c-fms (Homo sapiens (Human)), log10(IC50) listed for each of the molecules.
measurement_name: log10(IC50) (log10 of the value in nM)

{"columns": ["molecule", "subject_of_test", "log10(IC50)"],
 "data": [
  ["CC1(C)CC(c2ccc(NC(=O)c3nc(C#N)c[nH]3)c(C3=CCCCC3)n2)CC(C)(C)O1", "c-fms (Homo sapiens (Human))", 0.15],
  ["C[C@@H]1C2(C)C=C[C@@](C)(O2)[C@H](C)[C@@]1(O)c1ccc(NC(=O)c2nc(C#N)c[nH]2)c(C2=CCC(C)(C)CC2)c1", "c-fms (Homo sapiens (Human))", 2.00],
  ["CC1(C)CC=C(c2nc(C3C[C@](C)(CO)O[C@](C)(CO)C3)ccc2NC(=O)c2nc(C#N)c[nH]2)CC1 (stereo partly drawn) [Example 20, trifluoroacetic acid salt]", "c-fms (Homo sapiens (Human))", -0.39],
  ["CC1(C)CC=C(c2cc([C@@]3(O)C[C@]4(CO)CC[C@](CO)(C3)O4)ccc2NC(=O)c2nc(C#N)c[nH]2)CC1", "c-fms (Homo sapiens (Human))", -0.38],
  ["C[C@@H]1C2CC[C@@H](O2)[C@H](C)[C@@]1(O)c1ccc(NC(=O)c2nc(C#N)c[nH]2)c(C2=CCC(C)(C)CC2)c1", "c-fms (Homo sapiens (Human))", 1.15],
  ["C[C@@H]1C2C=C[C@@H](O2)[C@H](C)[C@@]1(O)c1ccc(NC(=O)c2nc(C#N)c[nH]2)c(C2=CCC(C)(C)CC2)c1", "c-fms (Homo sapiens (Human))", 1.20]
]}
